pIC50: −log10 of the molar value.
Target or system Corticotropin-releasing factor receptor 1 (Rattus norvegicus, UniProt P35353); metric pIC50; compiled from varied reports.
Readout Kind: pIC50

(A) Cc1nc(Nc2cc(C)c(C#N)cc2C)c(=O)n(C(C)C2CC2)n1 (stereo not given)
(B) CCNC(=O)OC[C@H](C1CC1)n1cc(Cl)nc(Nc2cc(C)c(OC)nc2C)c1=O
(C) COc1nc(C)c(Nc2nc(Cl)cn([C@H](COC(=O)Nc3cccc(C#N)c3)C3CC3)c2=O)cc1C
(D) COc1ccc(Nc2nc(C#N)cn([C@H](C)C3CC3)c2=O)c(C(F)(F)F)n1
Challenge: Which order do these fall in by pIC50? Give them lowest to highest. List each label, following the requested order.
Response given: A, B, D, C

(a) CCCCN(CC)c1cc(C)nc2c1NC(=O)CN2c1ccc(C(C)C)cc1
(b) COc1ccc(NC(=O)OC[C@H](C2CC2)n2cc(Cl)nc(Nc3cc(C)c(OC)nc3C)c2=O)c(C)n1
Challenge: Which is greater in pIC50, the first item a or the second item b ? Pick one and reply with its label.
Response given: b
(b: 8.04, a: 7.31)
